Reported pIC50 is given for each of the following compounds.
- Study Target: human recombinant HDAC6 (Homo sapiens, UniProt Q9UBN7)
- Construct: purchased Calbiochem 382180
- Sequence (Q9UBN7 whole entry): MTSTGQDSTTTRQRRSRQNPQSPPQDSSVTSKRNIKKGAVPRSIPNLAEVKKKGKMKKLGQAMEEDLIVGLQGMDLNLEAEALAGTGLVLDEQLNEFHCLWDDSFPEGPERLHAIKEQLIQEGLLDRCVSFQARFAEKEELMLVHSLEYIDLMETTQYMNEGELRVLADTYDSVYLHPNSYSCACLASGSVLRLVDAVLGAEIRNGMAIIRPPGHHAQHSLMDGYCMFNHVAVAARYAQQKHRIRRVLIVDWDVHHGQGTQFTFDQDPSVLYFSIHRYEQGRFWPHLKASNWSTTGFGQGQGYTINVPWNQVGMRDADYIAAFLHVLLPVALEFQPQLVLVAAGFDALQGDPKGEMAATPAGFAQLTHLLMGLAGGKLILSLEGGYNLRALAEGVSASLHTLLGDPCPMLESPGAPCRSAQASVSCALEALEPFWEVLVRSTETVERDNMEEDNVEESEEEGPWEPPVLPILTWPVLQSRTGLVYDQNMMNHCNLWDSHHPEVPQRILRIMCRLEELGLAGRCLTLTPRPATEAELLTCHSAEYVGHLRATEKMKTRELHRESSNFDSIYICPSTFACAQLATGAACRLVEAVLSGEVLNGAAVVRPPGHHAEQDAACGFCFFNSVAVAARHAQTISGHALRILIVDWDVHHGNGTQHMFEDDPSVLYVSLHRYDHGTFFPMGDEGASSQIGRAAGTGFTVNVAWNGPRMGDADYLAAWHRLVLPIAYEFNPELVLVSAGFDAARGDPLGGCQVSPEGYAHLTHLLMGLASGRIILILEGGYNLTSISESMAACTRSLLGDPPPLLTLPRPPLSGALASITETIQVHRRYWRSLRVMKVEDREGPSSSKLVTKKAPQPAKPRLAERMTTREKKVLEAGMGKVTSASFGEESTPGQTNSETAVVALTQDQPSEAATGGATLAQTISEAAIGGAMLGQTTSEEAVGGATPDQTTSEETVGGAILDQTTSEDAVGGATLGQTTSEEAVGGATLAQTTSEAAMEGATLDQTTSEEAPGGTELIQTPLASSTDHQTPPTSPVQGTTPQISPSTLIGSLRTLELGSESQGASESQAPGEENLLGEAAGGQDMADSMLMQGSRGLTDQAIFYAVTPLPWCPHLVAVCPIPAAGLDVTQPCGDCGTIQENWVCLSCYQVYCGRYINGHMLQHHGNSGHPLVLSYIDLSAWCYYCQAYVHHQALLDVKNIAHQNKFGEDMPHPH
- Test Details: HDAC6 enzyme activity inhibition assay (HDAC Fluorimetric Drug Discovery Kit)
- Format: biochemical
- Condition Info: human recombinant HDAC6, same protocol as HDAC1; read-out: HDAC6
pIC50: −log10 of the molar value.

| Structure Smiles String | Study Target | pIC50 |
| --- | --- | --- |
| CN1CCN(C(=O)N(Cc2ccc(-c3nnc(C(F)F)o3)cc2F)c2ccc(-c3ccccc3)cc2)CC1 | human recombinant HDAC6 (Homo sapiens, UniProt Q9UBN7) | 7.21 |
| CN1CCN(C(=O)N(Cc2ccc(-c3nnc(C(F)(F)F)o3)cc2)c2ccccc2)CC1 | human recombinant HDAC6 (Homo sapiens, UniProt Q9UBN7) | 6.96 |
| CCN1CCN(C(=O)N(Cc2ccc(-c3nnc(C(F)(F)F)o3)cc2F)c2ccc(C)c(Cl)c2)CC1 | human recombinant HDAC6 (Homo sapiens, UniProt Q9UBN7) | 6.51 |
| CC(C)n1ncc2ccc(N(Cc3ccc(-c4nnc(C(F)F)o4)cc3F)C(=O)N3CCS(=O)(=O)CC3)cc21 | human recombinant HDAC6 (Homo sapiens, UniProt Q9UBN7) | 6.97 |
